# ERβ RBA (%) annotations
# Test target: ERβ (Homo sapiens)
# Sequence (Q92731 whole entry): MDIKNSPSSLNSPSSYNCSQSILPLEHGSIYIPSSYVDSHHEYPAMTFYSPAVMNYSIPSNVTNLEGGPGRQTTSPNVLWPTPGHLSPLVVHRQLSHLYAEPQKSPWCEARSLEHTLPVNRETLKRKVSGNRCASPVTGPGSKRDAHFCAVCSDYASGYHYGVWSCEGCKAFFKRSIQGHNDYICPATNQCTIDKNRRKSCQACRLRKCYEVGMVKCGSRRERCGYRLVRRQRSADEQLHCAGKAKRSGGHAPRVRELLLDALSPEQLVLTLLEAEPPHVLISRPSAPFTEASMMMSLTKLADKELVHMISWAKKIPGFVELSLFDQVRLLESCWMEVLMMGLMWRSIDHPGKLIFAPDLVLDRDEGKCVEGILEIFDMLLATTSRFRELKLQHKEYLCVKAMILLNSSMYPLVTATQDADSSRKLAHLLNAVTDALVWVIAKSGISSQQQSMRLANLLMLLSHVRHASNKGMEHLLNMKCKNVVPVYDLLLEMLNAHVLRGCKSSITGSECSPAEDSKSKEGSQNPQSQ
# Protocol text: ER affinity assay (ERβ), [3H]-E2 displacement
# Study conditions: Relative Binding Affinity, E2 = 100%; recombinant human protein

Some solved entries appear below for comparison.
COc1ccc(-c2ccc(C(=O)N(C)Cc3cccc(OC)c3)s2)cc1 = <0.1%
COc1cccc(CN(C)C(=O)c2ccc(-c3cccc(OC)c3)s2)c1 = <0.1%

Input: Given the compound `COc1cccc(-c2ccc(C(=O)N(C)c3cccc(OC)c3)s2)c1` , what is its reported ERβ RBA (%)?
Output: <0.1%

Input: Look at this compound and give its reported ERβ RBA (%). `CN(Cc1cccc(O)c1)C(=O)c1ccc(-c2ccc(F)cc2)s1`
Output: <0.1%

Input: Data request, read-out ERβ RBA (%), for `Cc1cccc(-c2ccc(C(=O)N(C)Cc3cccc(O)c3)s2)c1`
Output: <0.1%

Input: What value of ERβ RBA (%) has been recorded for this entry: `CN(Cc1cccc(O)c1)C(=O)c1ccc(-c2ccccc2)s1`
Output: <0.1%

Input: Query (compound): `COc1cccc(-c2ccc(C(=O)N(C)Cc3cccc(O)c3)s2)c1` ; field requested: ERβ RBA (%)
Output: <0.1%
